Measured values drawn from patent US20260184766A1 for this set.

- target: T1, SARS CoV-2 spike trimer protein from the parental Wuhan-Hu-1 isolate (recombinant stabilized extracellular … (SARS-CoV-2 (Wuhan-Hu-1)))
- T1 construct: also called Spike protein
- experimentDescription: ELISA, spike coated, chimeric IgG1
pEC50: −log10 of the molar value.
measurementLabel: pEC50

- binder: "R2F12 chimeric bovine-human IgG1 (ultralong CDR3) (antibody, also called RR2F12) VH: QVQLRESGPSLVKPSQTLSLTCTVSGFSLSDKAVGWVRRAPGKALEWLGSIDTGGMTGYNPGLKSRLSITKDNSKSQVSLSVNSVTTEDSATYYCATVDQKTKNACPDDFDYRCSCIGGCGCARKGCVGPLCCRSDLGGYLTDSPAYIYEWYIDLWGQGLLVTVSS VL: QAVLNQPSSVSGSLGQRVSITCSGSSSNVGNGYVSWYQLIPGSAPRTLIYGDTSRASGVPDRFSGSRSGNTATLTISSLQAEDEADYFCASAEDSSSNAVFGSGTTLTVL"
  recordedResult: 10.30
- binder: "RBD F4 chimeric bovine-human IgG1 (antibody, V domains shown) VH: QVQLRESGPSLVKPSQTLSLTCTVSGFSLSSNGVVWVRQAPGKALEWLGDICSTGGTSFNPALKSRLSIAKDNSKSQVSLSVRSVTPEDTATYYCARSRGYDCYANVDALDYVDAWGQGLLVTVSS VL: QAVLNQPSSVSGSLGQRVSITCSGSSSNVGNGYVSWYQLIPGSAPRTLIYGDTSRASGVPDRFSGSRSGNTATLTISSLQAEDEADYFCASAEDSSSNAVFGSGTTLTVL"
  recordedResult: 10.52
- binder: "R2B1 chimeric bovine-human IgG1 (antibody, V domains shown) VH: QVQLRESGPSLVKPSQTLSLTCTVSGFSLSDNNVGWVRQAPGKALEWLGVMHNDGNKGYNPALKSRLSITKDSSKSQVSLSLSSVTSEDTATYYCTRDNARCDSWTYDSCDTWYRNSWHVDAWGQGLLVTVSS VL: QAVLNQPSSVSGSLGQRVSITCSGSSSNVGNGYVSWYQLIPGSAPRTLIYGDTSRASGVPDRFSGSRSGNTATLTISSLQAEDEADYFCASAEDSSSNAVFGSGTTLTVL"
  recordedResult: 9.43
